# tested.system: Env of HIV-1 strain X1254_c3 (HIV-1)
# method: cell-based or functional assay
readout.label: neutralization IC50
Units required after the number.

{"binder": "γ46κ18 (antibody, V domains shown) VH: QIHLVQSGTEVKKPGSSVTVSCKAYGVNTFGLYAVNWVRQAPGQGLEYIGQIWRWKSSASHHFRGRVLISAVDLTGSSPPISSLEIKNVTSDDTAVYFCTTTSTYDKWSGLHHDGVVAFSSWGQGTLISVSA VL: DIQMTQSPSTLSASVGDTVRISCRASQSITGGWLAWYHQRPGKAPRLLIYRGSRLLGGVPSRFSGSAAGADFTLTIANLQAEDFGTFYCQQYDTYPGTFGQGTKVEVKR", "neutralization IC50": "4.2 mg/L"}

Req: Could you please provide reported neutralization IC50 for γ3κ11 (antibody, V domains shown) VH: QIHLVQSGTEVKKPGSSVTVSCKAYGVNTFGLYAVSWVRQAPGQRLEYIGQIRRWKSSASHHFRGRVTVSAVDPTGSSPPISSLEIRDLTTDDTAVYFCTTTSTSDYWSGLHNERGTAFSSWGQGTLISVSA VL: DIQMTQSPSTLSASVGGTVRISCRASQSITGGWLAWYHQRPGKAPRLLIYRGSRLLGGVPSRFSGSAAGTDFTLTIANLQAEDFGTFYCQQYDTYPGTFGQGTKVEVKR ? Thanks!
Resp: 2.31 mg/L

Req: Could you please provide reported neutralization IC50 for γ20κ18 (antibody, V domains shown) VH: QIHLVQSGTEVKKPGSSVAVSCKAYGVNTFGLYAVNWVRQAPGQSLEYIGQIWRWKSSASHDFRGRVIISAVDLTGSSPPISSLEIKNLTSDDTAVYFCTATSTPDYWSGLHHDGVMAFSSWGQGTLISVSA VL: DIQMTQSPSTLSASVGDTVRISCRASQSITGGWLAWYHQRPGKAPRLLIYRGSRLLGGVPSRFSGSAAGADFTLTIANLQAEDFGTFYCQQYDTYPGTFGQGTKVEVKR ? Thanks!
Resp: 5.22 mg/L
